Just for reference, ChEMBL document CHEMBL1649182 is where these values come from.

Assay: Displacement of Biocillin FL from Streptococcus pneumoniae 3009 PBP2A
readout: IC50 (µg/mL)
The reply should be a number in µg/mL, with the unit left off.

| molecule | IC50 (µg/mL) |
| --- | --- |
| CC1(C)S[C@@H]2[C@H](NC(=O)[C@H](N)c3ccc(O)cc3)C(=O)N2[C@H]1C(=O)O [AMOXICILLIN] | 0.08 |
| CC1(C)S[C@@H]2[C@H](NC(=O)Cc3ccccc3)C(=O)N2[C@H]1C(=O)O [PENICILLIN G] | 0.011 |
| CO/N=C(\C(=O)N[C@@H]1C(=O)N2C(C(=O)O)=C(COC(N)=O)CS[C@H]12)c1ccco1 [CEFUROXIME] | 0.008 |
| C[C@@H](O)[C@H]1C(=O)N2C(C(=O)O)=C([C@H]3CCCO3)S[C@H]12 [FAROPENEM] | 0.016 |

**Query** Report IC50 for C[C@@H](O)[C@H]1C(=O)N2C(C(=O)O)=C(SCCNC=N)C[C@H]12 [IMIPENEM ANHYDROUS] please.
**Result** 0.054

---

Target: Penicillin-binding protein 1A (Streptococcus pneumoniae serotype 4 (strain ATCC BAA-334 / TIGR4), UniProt Q04707)
Sequence (Q04707 whole entry): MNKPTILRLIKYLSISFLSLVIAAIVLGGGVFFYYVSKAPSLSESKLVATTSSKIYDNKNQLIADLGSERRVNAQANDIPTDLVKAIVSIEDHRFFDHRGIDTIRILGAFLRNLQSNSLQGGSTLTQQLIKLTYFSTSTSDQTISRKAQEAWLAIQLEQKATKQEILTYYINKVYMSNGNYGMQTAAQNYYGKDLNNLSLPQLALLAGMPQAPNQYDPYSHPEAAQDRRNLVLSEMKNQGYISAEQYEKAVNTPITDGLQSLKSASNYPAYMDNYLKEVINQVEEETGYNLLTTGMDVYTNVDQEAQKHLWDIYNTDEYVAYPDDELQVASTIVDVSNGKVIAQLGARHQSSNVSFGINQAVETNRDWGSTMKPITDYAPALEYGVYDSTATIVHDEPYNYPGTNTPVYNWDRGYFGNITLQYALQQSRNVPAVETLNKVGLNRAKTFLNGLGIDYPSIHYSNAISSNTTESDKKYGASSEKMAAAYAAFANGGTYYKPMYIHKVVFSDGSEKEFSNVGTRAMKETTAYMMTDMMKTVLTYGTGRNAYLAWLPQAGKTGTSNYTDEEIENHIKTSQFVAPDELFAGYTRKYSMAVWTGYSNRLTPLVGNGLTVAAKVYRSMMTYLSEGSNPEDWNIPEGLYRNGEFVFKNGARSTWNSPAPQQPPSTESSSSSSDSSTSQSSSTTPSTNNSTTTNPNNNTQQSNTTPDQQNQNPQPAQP
Experiment: Displacement of Biocillin FL from Streptococcus pneumoniae 3413 PBP1A
readout: pIC50
Scale: pIC50 equals -log10([C]), with [C] in mol/L.

| compound | pIC50 |
| --- | --- |
| CC1(C)S[C@@H]2[C@H](NC(=O)[C@H](N)c3ccc(O)cc3)C(=O)N2[C@H]1C(=O)O [AMOXICILLIN] | 6.47 |
| CC1(C)S[C@@H]2[C@H](NC(=O)Cc3ccccc3)C(=O)N2[C@H]1C(=O)O [PENICILLIN G] | 7.22 |
| C[C@@H](O)[C@H]1C(=O)N2C(C(=O)O)=C(SCCNC=N)C[C@H]12 [IMIPENEM ANHYDROUS] | 5.68 |
| C[C@@H](O)[C@H]1C(=O)N2C(C(=O)O)=C([C@H]3CCCO3)S[C@H]12 [FAROPENEM] | 7.25 |

**Query** # lookup: pIC50 of CO/N=C(\C(=O)N[C@@H]1C(=O)N2C(C(=O)O)=C(COC(N)=O)CS[C@H]12)c1ccco1 [CEFUROXIME]
**Result** 8.63

---

Assay: Displacement of Biocillin FL from Streptococcus pneumoniae 1076 PBP3
// reported IC50 per item
Field format: number, assumed µg/mL, no unit text.

| molecule | scale unit | IC50 |
| --- | --- | --- |
| CC1(C)S[C@@H]2[C@H](NC(=O)Cc3ccccc3)C(=O)N2[C@H]1C(=O)O [PENICILLIN G] | µg/mL | 0.016 |

**Query** Given the entry C[C@@H](O)[C@H]1C(=O)N2C(C(=O)O)=C(SCCNC=N)C[C@H]12 [IMIPENEM ANHYDROUS] , report its measured IC50.
**Result** 0.032

**Query** Would you mind telling me what IC50 value was observed for CC1(C)S[C@@H]2[C@H](NC(=O)[C@H](N)c3ccc(O)cc3)C(=O)N2[C@H]1C(=O)O [AMOXICILLIN] ?
**Result** 0.051

**Query** So what does the record say about IC50 for C[C@@H](O)[C@H]1C(=O)N2C(C(=O)O)=C([C@H]3CCCO3)S[C@H]12 [FAROPENEM] ?
**Result** 0.015

**Query** Quick check: IC50 of CO/N=C(\C(=O)N[C@@H]1C(=O)N2C(C(=O)O)=C(COC(N)=O)CS[C@H]12)c1ccco1 [CEFUROXIME] ?
**Result** 0.021
